Reported TGI by item:
- Tested on: RXF 393 renal
- protocol notes: NCI tumour cell line growth inhibition, 48 h

molecule: CN(C)CCn1c(CO)nc2c1c(=O)n(C)c(=O)n2C
TGI: > 100 µM
//
molecule: CN(C)c1nc2ccccc2c2c1c1c(n2Cc2ccccc2)-c2ccccc2C1=O
TGI: > 100 µM
//
molecule: CN(Cc1cnc2nc(N)nc(N)c2n1)c1ccc(C(=O)NC(CO)CCCO)cc1 (stereo not given)
TGI: > 100 µM

Alright, here's another molecule for you.
## Task So what does the record say about TGI for "CCOC(=O)c1cc(C)nc2c1c(=O)n(-c1ccccc1)c(=O)n2CCCCN1CCN(c2ccccc2)CC1" ?
## Result > 100 µM
